Below, each entry is listed alongside its reported CC50.
test system: HT-29; experiment: Cytotoxicity against human HT29 cells after 48 hrs by SRB assay; assay type: functional, cell-based; conditions: Homo sapiens, HT-29, 48 h; read-out: LC50 (the source's name)

- MOLECULE_SMILES: "CC[C@@H](C)[C@@H](NC(=O)[C@H](CCCN)NC(=O)[C@H]1CCCN1C(=O)[C@H](NC(=O)[C@@H](NC(=O)[C@@H](NC(=O)[C@H](NC(=O)CCCC(C)C)C(C)C)[C@@H](C)O)C(C)C)C(C)C)C(=O)N[C@H]1C(=O)N[C@H]([C@H](C)CC)C(=O)N[C@H](C(C)C)C(=O)N[C@@H](Cc2ccccc2)C(=O)N/C(=C\\c2ccccc2)C(=O)N[C@@H](C(C)C)C(=O)O[C@H]1C"
  MEASURED_PROPERTY: "CC50"
  OBSERVED_VALUE: "5.22 µM"
- MOLECULE_SMILES: "C/C=C1\\NC(=O)[C@H](Cc2ccccc2)NC(=O)[C@@H](C(C)C)NC(=O)[C@@H]([C@H](C)CC)NC(=O)[C@H](NC(=O)[C@H](NC(=O)[C@H](CCCN)NC(=O)[C@H]2CCCN2C(=O)[C@H](NC(=O)[C@@H](NC(=O)[C@@H](NC(=O)[C@H](NC(=O)CCCC(C)C)C(C)C)[C@@H](C)O)C(C)C)C(C)C)[C@H](C)CC)[C@@H](C)OC(=O)[C@H](C(C)C)NC1=O"
  MEASURED_PROPERTY: "CC50"
  OBSERVED_VALUE: "3.79 µM"
- MOLECULE_SMILES: "C/C=C1\\NC(=O)[C@H](Cc2ccc(F)c(F)c2)NC(=O)[C@@H](C(C)C)NC(=O)[C@@H]([C@H](C)CC)NC(=O)[C@H](NC(=O)[C@H](NC(=O)[C@H](CCCN)NC(=O)[C@H]2CCCN2C(=O)[C@H](NC(=O)[C@@H](NC(=O)[C@@H](NC(=O)[C@H](NC(=O)CCCC(C)C)C(C)C)[C@@H](C)O)C(C)C)C(C)C)[C@H](C)CC)[C@H](C)OC(=O)[C@H](C(C)C)NC1=O"
  MEASURED_PROPERTY: "CC50"
  OBSERVED_VALUE: "0.0904 µM"

Enquiry: Short answer please: CC50, HT-29, entry C/C=C1\NC(=O)[C@H](Cc2ccccc2)NC(=O)[C@@H](C(C)C)NC(=O)[C@@H]([C@H](C)CC)NC(=O)[C@H](NC(=O)[C@H](NC(=O)[C@H](CCCN)NC(=O)[C@H]2CCCN2C(=O)[C@H](NC(=O)[C@@H](NC(=O)[C@@H](NC(=O)[C@@H](CCC(=O)O)NC(=O)CCCC(C)C)[C@@H](C)O)C(C)C)C(C)C)[C@H](C)CC)[C@H](C)OC(=O)[C@H](C(C)C)NC1=O
Return: 3.01 µM

Enquiry: Short answer please: CC50, HT-29, entry C/C=C1\NC(=O)[C@H](Cc2ccccc2)NC(=O)[C@@H](C(C)C)NC(=O)[C@@H]([C@@H](C)CC)NC(=O)[C@H](NC(=O)[C@H](NC(=O)[C@H](CCCN)NC(=O)[C@H]2CCCN2C(=O)[C@H](NC(=O)[C@@H](NC(=O)[C@@H](NC(=O)[C@H](NC(=O)CCCC(C)C)[C@@H](C)O)[C@@H](C)O)C(C)C)C(C)C)[C@@H](C)CC)[C@@H](C)OC(=O)[C@H](C(C)C)NC1=O
Return: 0.575 µM

====

system: A549; test: Cytotoxicity against human A549 cells after 48 hrs by SRB assay; format: functional, cell-based; settings: Homo sapiens, A549, 48 h; read-out: GI50
MEASURED_PROPERTY: GI50 (µM)
Give the quantity in µM, number only.

- MOLECULE_SMILES: "C/C=C1\\NC(=O)[C@H](Cc2ccccc2)NC(=O)[C@@H](C(C)C)NC(=O)[C@@H]([C@H](C)CC)NC(=O)[C@H](NC(=O)[C@H](NC(=O)[C@H](CCCN)NC(=O)[C@H]2CCCN2C(=O)[C@H](NC(=O)[C@@H](NC(=O)[C@@H](NC(=O)[C@H](NC(=O)CCCCCCCCCCCCCCC)C(C)C)[C@@H](C)O)C(C)C)C(C)C)[C@H](C)CC)[C@H](C)OC(=O)[C@H](C(C)C)NC1=O"
  EXPERIMENTAL_TARGET: "A549"
  GI50, µM: 1.37

With those in mind, consider the next compound.
Enquiry: Short answer please: GI50, A549, entry C/C=C1\NC(=O)[C@H](Cc2ccccc2)NC(=O)[C@@H](C(C)C)NC(=O)[C@@H]([C@H](C)CC)NC(=O)[C@H](NC(=O)[C@H](NC(=O)[C@H](CCCN)NC(=O)[C@H]2CCCN2C(=O)[C@H](NC(=O)[C@H](CCCN)NC(=O)[C@@H](NC(=O)[C@H](NC(=O)CCCC(C)C)C(C)C)[C@@H](C)O)C(C)C)[C@H](C)CC)[C@H](C)OC(=O)[C@H](C(C)C)NC1=O
Return: 2.92

====

tested on: A549; assay: Cytotoxicity against human A549 cells after 48 hrs by SRB assay; type: functional, cell-based; details: Homo sapiens, A549, 48 h; read-out: GI50
Below, each entry is listed alongside its reported GI50.
Give the quantity in nM, number only.

Some entries whose results are on file:
- MOLECULE: "C/C=C1\\NC(=O)[C@H](Cc2ccccc2)NC(=O)[C@@H](C(C)C)NC(=O)[C@@H]([C@H](C)CC)NC(=O)[C@H](NC(=O)[C@H](NC(=O)[C@H](CCCN)NC(=O)[C@H]2CCCN2C(=O)[C@H](NC(=O)[C@@H](NC(=O)[C@@H](NC(=O)[C@H](NC(=O)CCCC(C)C)C(C)C)C(C)C)C(C)C)C(C)C)[C@H](C)CC)[C@H](C)OC(=O)[C@H](C(C)C)NC1=O"
  OBSERVED_VALUE: 258
- MOLECULE: "C/C=C1\\NC(=O)[C@H](Cc2ccccc2)NC(=O)[C@@H](CCC2CCCCC2)NC(=O)[C@@H](CCC2CCCCC2)NC(=O)[C@H](NC(=O)[C@@H](CCC2CCCCC2)NC(=O)[C@H](CCCN)NC(=O)[C@H]2CCCN2C(=O)[C@H](NC(=O)[C@@H](NC(=O)[C@@H](NC(=O)[C@H](NC(=O)CCCC(C)C)C(C)C)[C@@H](C)O)C(C)C)C(C)C)[C@H](C)OC(=O)[C@H](C(C)C)NC1=O"
  OBSERVED_VALUE: 161
- MOLECULE: "C/C=C1\\NC(=O)[C@H](Cc2ccc(F)c(F)c2)NC(=O)[C@@H](C(C)C)NC(=O)[C@@H]([C@H](C)CC)NC(=O)[C@H](NC(=O)[C@H](NC(=O)[C@H](CCCN)NC(=O)[C@H]2CCCN2C(=O)[C@H](NC(=O)[C@@H](NC(=O)[C@@H](NC(=O)[C@H](NC(=O)CCCC(C)C)C(C)C)[C@@H](C)O)C(C)C)C(C)C)[C@H](C)CC)[C@H](C)OC(=O)[C@H](C(C)C)NC1=O"
  OBSERVED_VALUE: 137
- MOLECULE: "C/C=C1\\NC(=O)[C@H](Cc2ccccc2)N(C)C(=O)[C@@H](C(C)C)NC(=O)[C@@H]([C@H](C)CC)NC(=O)[C@H](NC(=O)[C@H](NC(=O)[C@H](CCCN)NC(=O)[C@H]2CCCN2C(=O)[C@H](NC(=O)[C@@H](NC(=O)[C@@H](NC(=O)[C@H](NC(=O)CC[C@@H](C)CC)C(C)C)[C@@H](C)O)C(C)C)C(C)C)[C@H](C)CC)[C@H](C)OC(=O)[C@H](C(C)C)NC1=O"
  OBSERVED_VALUE: 1300

Enquiry: Short answer please: GI50, A549, entry C/C=C1\NC(=O)[C@H](Cc2ccccc2)NC(=O)[C@@H](C(C)C)NC(=O)[C@@H]([C@H](C)CC)NC(=O)[C@H](NC(=O)[C@H](NC(=O)[C@H](CCCN)NC(=O)[C@H]2CCCN2C(=O)[C@H](NC(=O)[C@@H](NC(=O)[C@H](Cc2ccccc2)NC(=O)[C@H](NC(=O)CCCC(C)C)C(C)C)C(C)C)C(C)C)[C@H](C)CC)[C@H](C)OC(=O)[C@H](C(C)C)NC1=O
Return: 69.4

Enquiry: Short answer please: GI50, A549, entry C/C=C1\NC(=O)[C@H](Cc2ccccc2)NC(=O)[C@@H](C(C)C)NC(=O)[C@@H]([C@H](C)CC)NC(=O)[C@H](NC(=O)[C@H](NC(=O)[C@H](CCCN)NC(=O)[C@H]2CCCN2C(=O)[C@H](NC(=O)[C@@H](NC(=O)[C@@H](NC(=O)[C@H](NC(=O)CCCC(C)C)C(C)C)[C@@H](C)O)C(C)C)C(C)C)[C@H](C)CC)[C@H](C)OC(=O)[C@H](C(C)C)NC1=O [KAHALALIDE F]
Return: 1160

Enquiry: Short answer please: GI50, A549, entry C/C=C1\NC(=O)[C@H](c2ccccc2)NC(=O)[C@@H](C(C)C)NC(=O)[C@@H]([C@H](C)CC)NC(=O)[C@H](NC(=O)[C@H](NC(=O)[C@H](CCCN)NC(=O)[C@H]2CCCN2C(=O)[C@H](NC(=O)[C@@H](NC(=O)[C@@H](NC(=O)[C@H](NC(=O)CCCC(C)C)C(C)C)[C@@H](C)O)C(C)C)C(C)C)[C@H](C)CC)[C@H](C)OC(=O)[C@H](C(C)C)NC1=O
Return: 1090

Enquiry: Short answer please: GI50, A549, entry C/C=C1\NC(=O)[C@H](Cc2ccccc2)NC(=O)[C@@H](C(C)C)NC(=O)[C@@H]([C@H](C)CC)NC(=O)[C@H](NC(=O)[C@H](NC(=O)[C@H](CCCN)NC(=O)[C@H]2CCCN2C(=O)[C@H](NC(=O)[C@@H](NC(=O)[C@@H](NC(=O)[C@@H](CCCN)NC(=O)CCCC(C)C)[C@@H](C)O)C(C)C)C(C)C)[C@H](C)CC)[C@H](C)OC(=O)[C@H](C(C)C)NC1=O
Return: 747

Enquiry: Short answer please: GI50, A549, entry C/C=C1\NC(=O)[C@H](Cc2ccccc2)NC(=O)[C@@H](C(C)C)NC(=O)[C@@H]([C@H](C)CC)NC(=O)[C@H](NC(=O)[C@H](NC(=O)[C@H](CCCN)NC(=O)[C@H]2CCCN2C(=O)[C@H](NC(=O)[C@H](CC(C)C)NC(=O)[C@@H](NC(=O)[C@H](NC(=O)CCCC(C)C)C(C)C)[C@@H](C)O)C(C)C)[C@H](C)CC)[C@H](C)OC(=O)[C@H](C(C)C)NC1=O
Return: 1280

Enquiry: Short answer please: GI50, A549, entry C/C=C1\NC(=O)[C@H](Cc2ccccc2)NC(=O)[C@@H](C(C)C)NC(=O)[C@@H]([C@H](C)CC)NC(=O)[C@H](NC(=O)[C@H](NC(=O)[C@H](CCCN)NC(=O)[C@H]2CCCN2C(=O)[C@H](NC(=O)[C@H](C)NC(=O)[C@@H](NC(=O)[C@H](NC(=O)CCCC(C)C)C(C)C)[C@@H](C)O)C(C)C)[C@H](C)CC)[C@H](C)OC(=O)[C@H](C(C)C)NC1=O
Return: 3730
